- Test system: Human immunodeficiency virus 1
- measurement.protocol: Antiviral activity against HIV1 NL4-3 harboring reverse transcriptase E138K mutant assessed as inhibition of viral infection in human TZM-bl cells measured after 1 day by luciferase reporter gene assay
- Format: functional, organism-based
- run.parameters: Human immunodeficiency virus 1, NL4-3, TZM-bl, 24 h
property.measured: EC50
The reply must contain the numeric value and, after it, the unit.

Log: Human immunodeficiency virus 1, molecule `COc1cc(/C=C/C#N)cc(Br)c1Oc1ccc(N)c(Nc2ccc(C#N)cc2)n1` , EC50 = 3.5 nM

====

We begin with a simple list: items and their reported pEC50.
- Test system: Human immunodeficiency virus 1
- measurement.protocol: Antiviral activity against HIV1 NL4-3 assessed as inhibition of viral infection in human TZM-bl cells measured after 1 day by luciferase reporter gene assay
- Assay type: functional, organism-based
- run.parameters: Human immunodeficiency virus 1, NL4-3, TZM-bl, 24 h
When answering, recall that pEC50 equals minus log10 of the concentration in mol/L, and write that number alone.

Illustrative cases are given below, each with its answer.
COC(=O)c1cc(N)c(Nc2ccc(C#N)cc2)cc1Oc1c(Br)cc(CCC#N)cc1OC
8.28
COC(=O)c1cc(N)c(Nc2ccc(C#N)cc2)cc1Oc1c(OC)cc(CCC#N)cc1OC
6.99
Cc1cc(CCC#N)cc(C)c1Oc1cc(Nc2ccc(C#N)cc2)c(N)cc1C(=O)N(C)C
8.21
CCNC(=O)c1cc(N)c(Nc2ccc(C#N)cc2)cc1Oc1c(C)cc(CCC#N)cc1C
8.33
Cc1cc(CCC#N)cc(C)c1Oc1cc(Nc2ccc(C#N)cc2)c(N)cc1COC(=O)C1CC1
8.79
Cc1cc(CCC#N)cc(C)c1Oc1cc(Nc2ccc(C#N)cc2)c(N)cc1CNC1CC1
9.28

The measured pEC50 associated with `Cc1cc(CCC#N)cc(C)c1Oc1cc(Nc2ccc(C#N)cc2)c(N)cc1CN(C)C` reads 8.56

Measured pEC50, `Cc1cc(CCC#N)cc(C)c1Oc1cc(Nc2ccc(C#N)cc2)c(N)cc1Br` : 8.49

Sample `COCc1cc(N)c(Nc2ccc(C#N)cc2)cc1Oc1c(C)cc(CCC#N)cc1C` ; pEC50 observed: 8.84

// sample `Cc1cc(CCC#N)cc(C)c1Oc1cc(Nc2ccc(C#N)cc2)c(N)cc1CN1CCN(C)CC1` , its pEC50 was 6.94

According to the records, this compound `Cc1cc(CCC#N)cc(C)c1Oc1ccc(N)c(Nc2ccc(C#N)cc2)c1` displays pEC50 of 7.80

====

- System: Liver microsome
- measurement.protocol: Half life in human liver microsomes at 1 uM by LC-MS analysis
- Format: ADME
property.measured: log10 of t1/2 (log10 of the value in h)
The common logarithm of t1/2 in h is what is listed.

Cc1cc(CCC#N)cc(C)c1Oc1cc(Nc2ccc(C#N)cc2)c(N)cc1CN(C)C
0.59
Cc1cc(CCC#N)cc(C)c1Oc1cc(Nc2ccc(C#N)cc2)c(N)cc1Br
-0.08
Cc1cc(CCC#N)cc(C)c1Oc1cc(Nc2ccc(C#N)cc2)c(N)cc1CNC1CC1
0.22
Cc1cc(CCC#N)cc(C)c1Oc1cc(Nc2ccc(C#N)cc2)c(N)cc1COC(=O)C1CC1
-0.71
CNC(=O)c1cc(N)c(Nc2ccc(C#N)cc2)cc1Oc1c(Br)cc(CCC#N)cc1OC
0.37
COCc1cc(N)c(Nc2ccc(C#N)cc2)cc1Oc1c(C)cc(CCC#N)cc1C
0.59
CC(=O)OCc1cc(N)c(Nc2ccc(C#N)cc2)cc1Oc1c(C)cc(CCC#N)cc1C
-0.77
Cc1cc(CCC#N)cc(C)c1Oc1cc(Nc2ccc(C#N)cc2)c(N)cc1C(=O)N(C)C
0.22
CCNC(=O)c1cc(N)c(Nc2ccc(C#N)cc2)cc1Oc1c(C)cc(CCC#N)cc1C
0.46
COC(=O)c1cc(N)c(Nc2ccc(C#N)cc2)cc1Oc1c(Br)cc(CCC#N)cc1OC
0.37

Now take the following compound into account.
Lookup result for `Cc1cc(/C=C/C#N)cc(C)c1Nc1ccnc(Nc2ccc(C#N)cc2)n1` ; measured log10 of t1/2: 0.29

Values compiled from ChEMBL document CHEMBL3808367.
